measured-on: human liver glycogen phosphorylase a (HLGPa) (Homo sapiens)
Construct: creating a full-length cDNA fused at the 5′ end to codons for methionine-glycine-alanine-histidine; 6xHis tag (leader Met-Gly-Ala-His6-Gly-Gly) (N); made in house; host or cells: E. coli (bacterial expression plasmid pTXK1007LTev)
Sequence (P06737 2-847 limits assumed): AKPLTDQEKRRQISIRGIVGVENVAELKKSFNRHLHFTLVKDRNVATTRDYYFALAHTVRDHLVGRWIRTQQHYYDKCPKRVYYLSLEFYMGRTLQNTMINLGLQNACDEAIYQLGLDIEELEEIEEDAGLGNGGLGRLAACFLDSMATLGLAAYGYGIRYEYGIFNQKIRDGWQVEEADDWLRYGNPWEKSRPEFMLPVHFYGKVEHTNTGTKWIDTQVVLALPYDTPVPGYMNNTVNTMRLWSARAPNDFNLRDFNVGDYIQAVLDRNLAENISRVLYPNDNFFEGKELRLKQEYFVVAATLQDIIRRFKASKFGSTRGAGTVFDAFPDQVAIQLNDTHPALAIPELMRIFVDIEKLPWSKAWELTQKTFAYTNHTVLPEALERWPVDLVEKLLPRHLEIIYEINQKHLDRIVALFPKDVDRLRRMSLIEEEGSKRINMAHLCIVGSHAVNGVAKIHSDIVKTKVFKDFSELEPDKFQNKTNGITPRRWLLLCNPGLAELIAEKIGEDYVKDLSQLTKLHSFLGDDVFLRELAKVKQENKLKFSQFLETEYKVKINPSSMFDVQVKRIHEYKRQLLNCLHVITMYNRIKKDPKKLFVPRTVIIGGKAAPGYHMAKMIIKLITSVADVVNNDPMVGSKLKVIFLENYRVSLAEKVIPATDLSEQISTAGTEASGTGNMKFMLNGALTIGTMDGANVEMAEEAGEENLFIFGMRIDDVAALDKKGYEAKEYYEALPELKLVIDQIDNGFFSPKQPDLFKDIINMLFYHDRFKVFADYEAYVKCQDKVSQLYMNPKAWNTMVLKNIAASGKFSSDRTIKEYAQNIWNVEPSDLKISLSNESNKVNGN
protocol-details: Human liver glycogen phosphorylase a enzymatic activity assay (coupled, fluorescent resorufin readout, with and without 10 mM glucose)
Assay type: biochemical
test-settings: human liver glycogen phosphorylase a enzymatic activity assay
Counter-ions that a name gives are not always drawn.
parameter-measured: log10(IC50) (log10 of the value in µM)

[
  {
    "molecule": "O=C(O)C[C@H](NC(=O)c1c(NC(=O)Nc2c(Cl)cccc2Cl)sc2c1CCCC2)C(=O)O",
    "parameter-measured": "log10(IC50)",
    "endpoint-result": 0.62
  },
  {
    "molecule": "O=C(Nc1cc(Cl)ccc1C(=O)O)Nc1c(Cl)cccc1Cl",
    "parameter-measured": "log10(IC50)",
    "endpoint-result": 1.18
  },
  {
    "molecule": "Cc1cccc(C)c1NC(=O)Nc1cc2ccccc2cc1C(=O)N[C@@H](CCC(N)=O)C(=O)O",
    "parameter-measured": "log10(IC50)",
    "endpoint-result": 0.48
  },
  {
    "molecule": "NC(=O)C[C@H](NC(=O)c1cc2ccccc2cc1NC(=O)Nc1ccccc1Cl)C(=O)O",
    "parameter-measured": "log10(IC50)",
    "endpoint-result": 1.06
  },
  {
    "molecule": "COc1ccc(-c2cc(NC(=O)Nc3c(C)cc(C)cc3C)c(C(=O)NC3(C(=O)O)CCCCCC3)s2)cc1",
    "parameter-measured": "log10(IC50)",
    "endpoint-result": -2.40
  },
  {
    "molecule": "Cc1cccc(Cl)c1NC(=O)Nc1cc2ccccc2cc1C(=O)N[C@@H](Cc1ccc(O)cc1)C(=O)O",
    "parameter-measured": "log10(IC50)",
    "endpoint-result": -0.35
  },
  {
    "molecule": "COc1ccc(-c2ccc(C(=O)N[C@H](C(=O)O)C3CCCCC3)c(NC(=O)Nc3c(C)cccc3C)c2)cc1",
    "parameter-measured": "log10(IC50)",
    "endpoint-result": -1.49
  },
  {
    "molecule": "COc1ccc(-c2nc(C(=O)N[C@H](C(=O)O)C3CCCCC3)c(NC(=O)Nc3c(Cl)cccc3Cl)s2)cc1",
    "parameter-measured": "log10(IC50)",
    "endpoint-result": -0.13
  },
  {
    "molecule": "O=C(Nc1cc2ccccc2cc1C(=O)NC(C(=O)O)[C@H]1CC[C@H](C(F)(F)F)CC1)Nc1c(Cl)cc(OC(F)(F)F)cc1Cl (stereo partly drawn)",
    "parameter-measured": "log10(IC50)",
    "endpoint-result": -1.89
  },
  {
    "molecule": "O=C(Nc1sc(-c2ccc(F)cc2)cc1C(=O)O)Nc1c(Cl)cccc1Cl",
    "parameter-measured": "log10(IC50)",
    "endpoint-result": 0.47
  },
  {
    "molecule": "Cc1cccc(Cl)c1NC(=O)Nc1cc(F)c(F)cc1C(=O)N[C@@H](Cc1ccccc1)C(=O)O",
    "parameter-measured": "log10(IC50)",
    "endpoint-result": 1.04
  },
  {
    "molecule": "O=C(Nc1ccccc1Cl)Nc1cc(F)c(F)cc1C(=O)N[C@@H](Cc1c[nH]c2ccccc12)C(=O)O [Example 76, trifluoroacetate]",
    "parameter-measured": "log10(IC50)",
    "endpoint-result": 0.57
  },
  {
    "molecule": "Cc1cccc(C)c1NC(=O)Nc1cc2ccccc2cc1C(=O)NCCCC(=O)O",
    "parameter-measured": "log10(IC50)",
    "endpoint-result": 0.88
  },
  {
    "molecule": "COc1ccc(-c2cc(NC(=O)Nc3c(C)cc(C)cc3C)c(C(=O)N[C@H](C(=O)O)C3CCCCC3)s2)cc1",
    "parameter-measured": "log10(IC50)",
    "endpoint-result": -1.92
  },
  {
    "molecule": "COc1cc(NC(=O)Nc2ccccc2Cl)c(C(=O)N[C@@H](Cc2c[nH]c3ccccc23)C(=O)O)cc1OC [Example 77, trifluoroacetate]",
    "parameter-measured": "log10(IC50)",
    "endpoint-result": 0.96
  }
]
